- TEST_TARGET: OBP14 (Apis mellifera)
- Sequence (A0A8U0WQC3 entry or part of it): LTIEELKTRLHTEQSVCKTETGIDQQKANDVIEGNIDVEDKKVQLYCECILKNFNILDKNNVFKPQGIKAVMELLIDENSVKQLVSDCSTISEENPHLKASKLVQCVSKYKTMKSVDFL
- ASSAY: biochemical
- Assay type: binding, honeybees
- TEST_PARAMETERS: Table 1; affinity constant KA = kon/koff from titration, Langmuir model; 1mM PBS, pH = 8.0
ASSAY_METRIC: 10^2 [KA] /M^-1

Input: Using the record for COc1cc(CC(=O)O)ccc1O [Homovanillic acid] , state its measured 10^2 [KA] /M^-1.
Output: 1540 ± 140 10^2 M^-1

Input: Using known records, supply 10^2 [KA] /M^-1 for CC(C)=CCC/C(C)=C/CO [Geraniol, (2E)-3,7-Dimethylocta-2,6-dien-1-ol]
Output: 8.96 ± 0.04 10^2 M^-1

Input: Given the molecule CC(=O)CCC=C(C)C [Sulcatone, 6-Methylhept-5-en-2-one] , write its reported 10^2 [KA] /M^-1.
Output: 7.07 ± 0.11 10^2 M^-1

Input: Input CC(=O)OCCC(C)C [Isoamyl acetate, 3-methylbutyl acetate] , output reported 10^2 [KA] /M^-1.
Output: 12.33 ± 0.86 10^2 M^-1

Input: Answer with the recorded 10^2 [KA] /M^-1 for the molecule listed here: C=CCc1ccc(O)c(OC)c1 [Eugenol, 4-Allyl-2-methoxyphenol]
Output: 1087 ± 91 10^2 M^-1

Input: Dear colleague, please send me the reported 10^2 [KA] /M^-1 for CC(C)=CCCC(C)=CC=O (mixture of isomers) [Citral, (2E)-3,7-dimethylocta-2,6-dienal] when you can.
Output: 16.97 ± 0.02 10^2 M^-1
